# systemName: IL-4Rα (on TF-1 cells) (UniProt P24394 26-825, limits assumed)
# procedureDetails: cell-based or functional assay
observable: EC50 of neutralizing IL-13-induced TF-1 proliferation (nM)

| binder | readoutValue |
| --- | --- |
| humanized anti-IL-4Rα single domain antibody 4E9-V13 (VHH) VHH: QVQLVESGGGLVQPGGSLRLSCAASGDFYCMAWFRQAPGKEREAVATIRSGGRSTYYADSVKGRFTISRDNSKNTVYLQMNSLKAEDTAVYYCAVGVDGNCRNYWGQGTLVTVSS | 4.2 |

A. humanized anti-IL-4Rα single domain antibody 4E9-V6 (VHH) VHH: QVQLVESGGGLVQPGGSLRLSCAASGDFYCMAWFRQAPGKEREAVATIRSGGRSTYYADSVKGRFTISRDNSKNTLYLQMNSLKAEDTAVYYCAVGVDGNCRNYWGQGTLVTVSS
B. humanized anti-IL-4Rα single domain antibody 4E9-V12 (VHH) VHH: QVQLVESGGGLVQPGGSLRLSCAASGDFYCMAWFRQAPGKEREAVATIRSGGRSTYLADSVKGRFTISRDNSKNTLYLQMNSLKAEDTAVYYCAVGVDGNCRNYWGQGTLVTVSS
In: Looking only at measured EC50 of neutralizing IL-13-induced TF-1 proliferation, which entry is lower, A or B ? Refer to your chosen entry by its label in the reply.
Out: A

A. humanized anti-IL-4Rα single domain antibody 4E9-V8 (VHH) VHH: QVQLVESGGGLVQPGGSLRLSCAASGDFYCMAWFRQAPGKERERVAKIRSGGRSTYLADSVKGRFTISRDNSKNTLYLQMNSLKAEDTAVYYCAVGVDGNCRNYWGQGTLVTVSS
B. humanized anti-IL-4Rα single domain antibody 4E9-V10 (VHH) VHH: QVQLVESGGGLVQPGGSLRLSCAASGDFYCMAWFRQAPGKEREAVAAIRSGGRSTYYADSVKGRFTISRDNSKNTLYLQMNSLKAEDTAVYYCAVGVDGNCRNYWGQGTLVTVSS
In: Exercise: compare A and B ; which one has the greater EC50 of neutralizing IL-13-induced TF-1 proliferation? Refer to your chosen entry by its label in the reply.
Out: A
(A: 3.11 nM, B: 0.18 nM)
